- Test system: HCT-116
- Assay info: NCI tumour cell line growth inhibition, 48 h
Active and inactive are the calls of the source. Rule as the data show it: active = GI50 up to about 1.1 µM and inactive = higher. Where a SMILES comes first, the peptide text is derived from it. The star is where a group is joined. Fmoc = O=C(OCC1c2ccccc2-c2ccccc21)*; Boc = CC(C)(C)OC(=O)*
Kindly supply the reported GI50 values for the records listed here.

The molecule listed as O=C(N/C(=C\c1ccc([N+](=O)[O-])cc1)c1nc2ccccc2s1)c1ccccc1 shows GI50 equal to 27 µM (inactive)

GET /value?item= CCOC(=O)c1cn(CC)c2cc3c(cc2c1=O)CCS3(=O)=O &field=GI50 returns > 100 µM (inactive)

For reference, reported GI50 for COC(O)C12OC3CO[Si](C(C)C)(C(C)C)O[Si](C(C)C)(C(C)C)OC3C1Oc1nc(=O)ccn12 (stereo not given) stands at 8.61 µM (inactive)

For record CN(C)CCOc1ccc([N+](=O)[O-])c2cccnc12 the listed GI50 is 35.6 µM (inactive)

Briefly, GI50 measured for Cc1ccc(C(=O)/C=C2\Nc3cccnc3NC2=O)cc1 : > 100 µM (inactive)

// field: GI50; key: CCCCCCc1cc2cc(C(=O)Nc3cccc(C(F)(F)F)c3)c(=N)oc2cc1O ; value = 1.55 µM (inactive)

The measured GI50 associated with Cc1ccccc1OC(C)C(=O)NN1C(=O)CC(=O)NC1=S (stereo not given) reads > 100 µM (inactive)

Documented GI50 of CCOC(=O)COC1=Nc2cc(OC)c(OC)c3nc(Cl)cc(c23)C1=O : 1.67 µM (inactive)

Value of measured GI50 for the entry Fc1ccc(C2NC(=S)NC3=C2CCOc2c3ccc3ccccc23)cc1 (stereo not given) : 4.85 µM (inactive)

The reported GI50 of the molecule CC(C(=O)O)c1cnn(-c2ccccc2)c1-n1cccc1 (stereo not given) was > 100 µM (inactive)

O=C(c1cccs1)N(C(=S)OCc1ccccn1)c1ccccc1 has a reported GI50 of 63.5 µM (inactive)

Per the record, CCCC(=O)NC(Nc1ccc(S(=O)(=O)Nc2cc(C)on2)cc1)(C(=O)OCC)C(F)(F)F (stereo not given) has GI50 of > 100 µM (inactive)

Recorded result, CSc1nc(C)cc(=O)n1C1OC(COC(C)=O)C(OC(C)=O)C(OC(C)=O)C1OC(C)=O (stereo not given) , GI50: > 100 µM (inactive)

The molecule listed as CCc1ccc(NCc2cc(OC)c(OC)c(OC)c2)cc1 has a reported GI50 of 0.0998 µM (active)

Input CCCCC(C(=O)C(=O)Nc1ccc(C)cc1C)C(=O)C(C)C (stereo not given) . Output GI50: > 100 µM (inactive)

Value of measured GI50 for the entry COc1cc(O)c2c(O)c3c(=O)oc(C)cc3c(OC)c2c1 [PAEPALANTINE] : 20.6 µM (inactive)

// GI50 value for CNC(=O)CCC(NC(C)=O)C(=O)NC(Cc1ccc(NC(=O)CCCCC(C)=O)cc1)C(=O)NC(CCC(=O)NC)C(=O)NC (stereo not given) : > 100 µM (inactive)

The reported GI50 of the molecule CCOP(=O)(OCC)/C(=C\N1C(=O)CC(=O)NC1=S)C(=O)OC was > 100 µM (inactive)

Notebook: CCCCCCCCCCCCCCCC(=O)OCC1OC(n2cc(F)c(=O)[nH]c2=O)C(NC(=O)OCc2ccccc2)C(O)C1O (stereo not given) , GI50 read as 16.6 µM (inactive)

Memo: Clc1ccc2c(c1)C1C(CO2)C(c2ccccc2)=NN1c1ccccc1 (stereo not given) , reported GI50: 16.1 µM (inactive)

Sure, the documented GI50 for O=C(O)Cc1ccc(Oc2nc3ccccc3nc2-c2ccccc2)cc1 is 85.7 µM (inactive)

Item: C[C@@H](CCO)OC1OC(COC(=O)C(C)(C)C)C(OC(=O)C(C)(C)C)C(OC(=O)C(C)(C)C)C1OC(=O)C(C)(C)C (stereo not given in full) | GI50: 18 µM (inactive)

GI50 reading for CCOC(=O)C1=C(C)N(C2OC(COC(C)=O)C(OC(C)=O)C(OC(C)=O)C2OC(C)=O)C(=O)NC1c1ccccc1 (stereo not given) : > 100 µM (inactive)

For this molecule ( COc1ccc(N2C(=O)C3c4[nH]c5c(C)cccc5c4C4CCC(c5ccccc5)CC4C3C2=O)cc1 (stereo not given) ), measured GI50 is 13.4 µM (inactive)

Record CC(C)(C)OC(=O)NCCCCC(NC(=O)C(Cc1c[nH]c2ccccc12)NC(=O)OCC1c2ccccc2-c2ccccc21)C(=O)O (stereo not given) (Fmoc-Trp-Lys(Boc)-OH; configuration not given here) , field GI50: 32 µM (inactive)

Lab note: O=c1ccn(/C=C/C(O)C(O)CO)c(=O)[nH]1 (stereo not given) gave GI50 of > 100 µM (inactive)

Note to self: GI50 recorded for O=c1oc2ccccc2c(-c2ccc(O)cc2)c1Oc1ccc(Cl)cc1 was 15.8 µM (inactive)

Record COc1cc(C(O)(CC#N)c2cc3c(cc2Br)OCO3)cc(OC)c1OC (stereo not given) . Reported GI50: 40.6 µM (inactive)

GET /value?item= COc1c2ccoc2cc2oc(=O)ccc12 &field=GI50 returns > 100 µM (inactive)

For CN1/C(=N\c2ccccc2)S/C1=N/c1ccccc1 the molecule record lists GI50 as 47.6 µM (inactive)

// sample CC(C)C1/C(=N/O)CC(c2ccccc2)N(N=O)C1c1ccccc1 (stereo not given) , its GI50 was 28.5 µM (inactive)

GI50 measured on COc1ccc(C(=C[N+](=O)[O-])c2ccc(OC)cc2)cc1 = 8.05 µM (inactive)

Sure, the documented GI50 for C#CCCOC(=O)c1ccccc1OC(C)=O is > 100 µM (inactive)

Data point: O=Cc1ccc(OCc2cccc(COc3ccc(/C=N\Nc4ccc([N+](=O)[O-])cc4[N+](=O)[O-])cc3)n2)cc1 ; GI50 = > 100 µM (inactive)

Record summary for COc1ccc(-c2c3c(nc4nc(SCC(=O)c5ccc(Br)cc5)nc(N)c24)CCCC3)cc1OC : reported GI50 = > 100 µM (inactive)

For reference, reported GI50 for O=C(CSc1nc2ccc(I)cc2c(=O)n1Cc1ccccc1)Nc1ccccc1 stands at 42.1 µM (inactive)

Value of GI50 reported for the molecule CSc1cc(=O)n2c3ccccc3c3ccnc1c32 is > 100 µM (inactive)

GI50 reported for this molecule COc1ccc2c(N=[N+]=[N-])c(-c3ccccc3)c(=O)oc2c1 : 44.3 µM (inactive)

The recorded GI50 for entry CCOC(=O)C1(C)CCC(C(=O)OC)C1=O (stereo not given) equals 57 µM (inactive)

The molecule identified as Cc1cccc(Nc2cc(Cl)nc(SCC(=O)O)n2)c1C registered its GI50 at > 100 µM (inactive)
